study.system: human ether-à-go-go-related gene (hERG) potassium channel (human, UniProt Q12809);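 also: peak tail current of the secondary pulse compared with the same well before compound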
Sequence (Q12809 whole entry, looked up): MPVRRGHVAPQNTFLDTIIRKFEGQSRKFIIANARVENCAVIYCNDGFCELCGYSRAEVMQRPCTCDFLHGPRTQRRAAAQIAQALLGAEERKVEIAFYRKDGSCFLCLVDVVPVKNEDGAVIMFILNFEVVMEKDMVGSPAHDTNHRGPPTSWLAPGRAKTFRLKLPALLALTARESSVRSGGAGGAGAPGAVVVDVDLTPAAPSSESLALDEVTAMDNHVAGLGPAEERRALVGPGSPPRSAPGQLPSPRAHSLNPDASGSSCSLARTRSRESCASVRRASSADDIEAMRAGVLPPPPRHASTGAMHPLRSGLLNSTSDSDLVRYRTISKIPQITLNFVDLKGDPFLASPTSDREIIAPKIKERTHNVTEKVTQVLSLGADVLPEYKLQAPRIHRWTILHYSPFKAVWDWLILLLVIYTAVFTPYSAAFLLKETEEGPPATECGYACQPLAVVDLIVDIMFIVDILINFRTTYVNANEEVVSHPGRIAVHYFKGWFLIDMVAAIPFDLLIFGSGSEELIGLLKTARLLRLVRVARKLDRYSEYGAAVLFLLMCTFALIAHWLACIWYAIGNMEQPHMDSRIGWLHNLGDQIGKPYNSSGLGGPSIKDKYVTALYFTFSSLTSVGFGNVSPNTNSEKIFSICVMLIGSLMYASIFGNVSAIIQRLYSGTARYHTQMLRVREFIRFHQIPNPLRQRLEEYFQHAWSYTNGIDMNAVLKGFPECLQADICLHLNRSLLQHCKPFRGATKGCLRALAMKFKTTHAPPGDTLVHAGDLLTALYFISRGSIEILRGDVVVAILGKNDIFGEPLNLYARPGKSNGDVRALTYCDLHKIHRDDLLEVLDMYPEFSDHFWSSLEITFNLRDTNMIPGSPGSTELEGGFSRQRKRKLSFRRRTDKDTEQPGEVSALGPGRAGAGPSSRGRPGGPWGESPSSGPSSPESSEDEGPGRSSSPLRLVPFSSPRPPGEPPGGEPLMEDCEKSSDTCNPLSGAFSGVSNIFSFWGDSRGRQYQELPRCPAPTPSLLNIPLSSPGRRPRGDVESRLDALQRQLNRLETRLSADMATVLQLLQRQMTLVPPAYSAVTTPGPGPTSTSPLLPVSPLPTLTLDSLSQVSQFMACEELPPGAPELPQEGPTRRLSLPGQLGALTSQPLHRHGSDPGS
method.description: primary screen, population patch clamp on CHO cells stably expressing hERG; higher = less effect of the substance
About 14,000 (4.5%) of roughly 310,000 compounds showed an effect of 50% or more. The effect is printed as a negative number. For the sample, strong results were picked, then their nearest neighbours and some compounds at random.
For each entry below, report its hERG current change (%, negative = inhibition) at 10uM value.
Numbers only, in %.

Record excerpt, results attached:
- molecule: "O=C(Cn1nc(-c2ccccc2)ccc1=O)NCCN1CCN(c2cccc(Cl)c2)CC1"
  reported.result: -24.4
- molecule: "COc1cccc(-n2c(C)nn(CCOc3ccccc3)c2=O)c1"
  reported.result: 8.58
- molecule: "Cl.OCCN1CCN(CCOc2cccc(Cl)c2)CC1"
  reported.result: -15.6
- molecule: "Cc1ccc(-n2cccn2)c(CN2CCCC(C(=O)c3ccc4c(c3)OCO4)C2)c1 (stereo not drawn)"
  reported.result: -77.2
- molecule: "CCc1nn(CCCN2CCN(c3cccc(Cl)c3)CC2)c(=O)n1CCOc1ccccc1"
  reported.result: -63.2
- molecule: "CCCCCCNC(=O)N[C@@H](C(=O)NCCC[C@H]1CN2C(=NC[C@@H]2Cc2ccccc2)N1CCc1cccc(OC)c1)C(C)C"
  reported.result: -18.7
- molecule: "CCc1nn(CCCN2CCN(c3cccc(Cl)c3)CC2)c(=O)n1CCOc1ccccc1.Cl"
  reported.result: -65
- molecule: "O=C(c1ccc2c(c1)OCO2)C1CCCN(Cc2cc(F)ccc2-n2cccn2)C1 (stereo not drawn)"
  reported.result: -74.9

Now, please, on to the next molecule.
Sure, the documented hERG current change (%, negative = inhibition) at 10uM for CCC(c1nnnn1Cc1ccco1)N(Cc1cc2cc(OC)ccc2[nH]c1=O)C1CCCCC1 (stereo not drawn) is -6.37
